Would you kindly list switch fluorescence ratio for each of these sequences?
System: ATP;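 also: ATP exposure 15 min at 22 °C before imaging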
Assay comment: switch fluorescence ratio, 500 uM ATP over buffer (Cy3 cluster intensity, sum of 5 cycles each) (fold (ratio)); higher = stronger signal-on switching upon ATP binding; sequences stand for … in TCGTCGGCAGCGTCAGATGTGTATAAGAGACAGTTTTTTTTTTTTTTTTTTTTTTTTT…TC
Test conditions: aptamer strand: ATP DNA aptamer (quencher-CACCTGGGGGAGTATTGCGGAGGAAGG + anchor), 100 nM annealed; ATP concentration: 500 uM
Field format: numeric only.

Challenge: Which switch fluorescence ratio reading was recorded for the sequence TTAAGGCGTT ?
Response given: 0.979

Challenge: I have this sequence here, AGGGCATAGG , and I need its recorded switch fluorescence ratio.
Response given: 0.965

Challenge: Entry under review: ACGAGCGTGG . Reported switch fluorescence ratio?
Response given: 1

----------
Tested on: ATP;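 also: ATP exposure 15 min at 22 °C before imaging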
Assay comment: switch fluorescence ratio, 500 uM ATP over buffer (Cy3 cluster intensity, sum of 5 cycles each) (fold (ratio)); higher = stronger signal-on switching upon ATP binding; sequences stand for … in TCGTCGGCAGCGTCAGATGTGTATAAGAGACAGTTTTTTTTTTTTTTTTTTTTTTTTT…TC
Test conditions: aptamer strand: ATP DNA aptamer (quencher-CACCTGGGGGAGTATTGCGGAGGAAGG + anchor), 100 nM annealed; ATP concentration: 500 uM
Value kind: switch fluorescence ratio
Write the number on its own, no unit after it.

Challenge: Entry under review: CAATGCGTTT . Reported switch fluorescence ratio?
Response given: 0.998

Challenge: What value of measured switch fluorescence ratio is listed for GTTGGGGGGT ?
Response given: 0.989

Challenge: Form field: reported switch fluorescence ratio of GTGGGGCACG
Response given: 0.993

Challenge: Dear colleague, I am looking for the recorded switch fluorescence ratio of the following sequence: TGTGCAGAAA
Response given: 0.99

Challenge: Fill blank: measured switch fluorescence ratio of the sequence TACAGATTTG is ____.
Response given: 1.01

Challenge: Requested read-out: switch fluorescence ratio. Entry: TAGGTTATTA
Response given: 0.999

Challenge: Which measured switch fluorescence ratio value corresponds to AAAGTCTGGA ?
Response given: 1.03

Challenge: Value lookup for switch fluorescence ratio; key = GCTTCAGGGT
Response given: 0.989

Challenge: # lookup: switch fluorescence ratio of GTGTGGAGGG
Response given: 1.02

Challenge: // switch fluorescence ratio lookup, key: GGTTCGAAGT
Response given: 1.01

Challenge: I have this sequence here, TGTCCCACAA , and I need its recorded switch fluorescence ratio.
Response given: 0.999

----------
System: ATP;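 also: ATP exposure 15 min at 22 °C before imaging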
Assay comment: switch fluorescence ratio, 500 uM ATP over buffer (Cy3 cluster intensity, sum of 5 cycles each) (fold (ratio)); higher = stronger signal-on switching upon ATP binding; sequences stand for … in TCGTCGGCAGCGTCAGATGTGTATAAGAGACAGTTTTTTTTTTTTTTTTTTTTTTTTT…TC
Test conditions: aptamer strand: ATP DNA aptamer (quencher-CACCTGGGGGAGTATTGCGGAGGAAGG + anchor), 100 nM annealed; ATP concentration: 500 uM
Could you please report measured switch fluorescence ratio for the items listed next?
Could you respond with only the numeric value?

Challenge: Recorded switch fluorescence ratio of TCCAGTTAGT , please.
Response given: 0.977

Challenge: Name the recorded switch fluorescence ratio for TTTTGACGCT .
Response given: 0.977

Challenge: I'd like to know its switch fluorescence ratio. The sequence in question is TATCTGGTAG
Response given: 1

Challenge: GET /values?readout=switch fluorescence ratio&item= GAAATAATAA
Response given: 1.01

Challenge: I am curious: what switch fluorescence ratio value has been reported for GACGCACGAA ?
Response given: 1.58

Challenge: Which switch fluorescence ratio reading was recorded for the sequence TCGGCGGCTG ?
Response given: 0.984

Challenge: Reported switch fluorescence ratio for ATTGAAGCCT : what is it?
Response given: 1.15
